self-cleavage for assorted variants
B1: CPEB3 Ribozyme (parent)
chain: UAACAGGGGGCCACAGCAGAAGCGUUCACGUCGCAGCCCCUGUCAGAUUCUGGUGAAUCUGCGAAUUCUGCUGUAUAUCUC

Variants of: B1
Assay: self-cleavage, relative activity (ratio to wild type); higher = more cleavage; in vitro, sequencing

| VARIANT_STRING | self-cleavage |
| --- | --- |
| A64U A77U | 0.46 |
| G6C U48C | 0.47 |
| G52C G61C | 0.34 |
| G61A U72A | 0.3 |
| C29U U31C | 0.31 |
| G33A U72A | 0.23 |
| G8A C14G | 0.38 |
| A18C U74C | 0.58 |
| G30U U54C | 0.14 |
| A5U G61U | 0.72 |
| G16U G33A | 0.32 |
